Quick reference: GI50 of the listed items.
System: OVCAR-4 ovarian
ASSAY_NAME: NCI tumour cell line growth inhibition, 48 h
Where a SMILES comes first, the peptide text is derived from it. Bridges are numbered along the chain shown (N, C = ends). [ ]: non-standard residue; d: D form. The star is where a group is joined. ξ: configuration not given here. ξDab(CH2SO3H) = NC(CCNCS(=O)(=O)O)C(=O)O; Heptanoyl(6-Me) = CC(C)CCCCC(=O)*; Dab = NCC[CH](N)C(=O)O

{"COMPOUND": "COc1ccc2c(c1)oc(=O)c1cc(OC)ccc12", "GI50": "> 100 µM"}
{"COMPOUND": "Clc1ccc(Nc2ccnc(N3CCN(c4ccnc5cc(Cl)ccc45)CC3)n2)cc1", "GI50": "2.56 µM"}
{"COMPOUND": "N#Cc1c(N2CCOCC2)nc(=S)[nH]c1-c1ccccc1", "GI50": "65.7 µM"}
{"COMPOUND": "CCCCCCn1c(-c2ccc(C(=O)O/N=C(\\N)c3ccc4ccccc4c3)cc2)nc(-c2ccccc2)c1-c1ccccc1", "GI50": "> 100 µM"}
{"COMPOUND": "O=[N+]([O-])c1ccc(C2CC(c3ccccc3)=Nc3ccccc3S2)cc1 (stereo not given)", "GI50": "21.4 µM"}
{"COMPOUND": "COc1ccc2cc(C(=O)/C=C/c3ccc(N(C)C)cc3)ccc2c1", "GI50": "81.7 µM"}
{"COMPOUND": "CC(=O)Nc1c(I)c(NC(C)=O)c(I)c(C(=O)O)c1I", "GI50": "> 100 µM"}
{"COMPOUND": "[Cl][Hg][c]1ccc(Cl)s1", "GI50": "1.76 µM"}
{"COMPOUND": "CCC(C)C1NC(=O)C(CCNCS(=O)(=O)O)NC(=O)C(NC(=O)C(CCNCS(=O)(=O)O)NC(=O)C(NC(=O)C(CCNCS(=O)(=O)O)NC(=O)CCCCC(C)C)C(C)O)CCNC(=O)C(C(C)O)NC(=O)C(CCNCS(=O)(=O)O)NC(=O)C(CCNCS(=O)(=O)O)NC(=O)C(C(C)CC)NC1=O (stereo not given) ({Heptanoyl(6-Me)}-[ξDab(CH2SO3H)]T[ξDab(CH2SO3H)][Dab][ξDab(CH2SO3H)]II[ξDab(CH2SO3H)][ξDab(CH2SO3H)]T; lactam 4-C; configuration not given here)", "GI50": "11.3 µM"}
{"COMPOUND": "CCCCCCCCCCCC(=O)N1CCN(C(C)=O)CC1", "GI50": "32.8 µM"}
